TGT: Epidermal growth factor receptor (Homo sapiens, UniProt P00533, L858R/T790M)
Sequence (P00533 25-1210 T790M/L858R limits assumed): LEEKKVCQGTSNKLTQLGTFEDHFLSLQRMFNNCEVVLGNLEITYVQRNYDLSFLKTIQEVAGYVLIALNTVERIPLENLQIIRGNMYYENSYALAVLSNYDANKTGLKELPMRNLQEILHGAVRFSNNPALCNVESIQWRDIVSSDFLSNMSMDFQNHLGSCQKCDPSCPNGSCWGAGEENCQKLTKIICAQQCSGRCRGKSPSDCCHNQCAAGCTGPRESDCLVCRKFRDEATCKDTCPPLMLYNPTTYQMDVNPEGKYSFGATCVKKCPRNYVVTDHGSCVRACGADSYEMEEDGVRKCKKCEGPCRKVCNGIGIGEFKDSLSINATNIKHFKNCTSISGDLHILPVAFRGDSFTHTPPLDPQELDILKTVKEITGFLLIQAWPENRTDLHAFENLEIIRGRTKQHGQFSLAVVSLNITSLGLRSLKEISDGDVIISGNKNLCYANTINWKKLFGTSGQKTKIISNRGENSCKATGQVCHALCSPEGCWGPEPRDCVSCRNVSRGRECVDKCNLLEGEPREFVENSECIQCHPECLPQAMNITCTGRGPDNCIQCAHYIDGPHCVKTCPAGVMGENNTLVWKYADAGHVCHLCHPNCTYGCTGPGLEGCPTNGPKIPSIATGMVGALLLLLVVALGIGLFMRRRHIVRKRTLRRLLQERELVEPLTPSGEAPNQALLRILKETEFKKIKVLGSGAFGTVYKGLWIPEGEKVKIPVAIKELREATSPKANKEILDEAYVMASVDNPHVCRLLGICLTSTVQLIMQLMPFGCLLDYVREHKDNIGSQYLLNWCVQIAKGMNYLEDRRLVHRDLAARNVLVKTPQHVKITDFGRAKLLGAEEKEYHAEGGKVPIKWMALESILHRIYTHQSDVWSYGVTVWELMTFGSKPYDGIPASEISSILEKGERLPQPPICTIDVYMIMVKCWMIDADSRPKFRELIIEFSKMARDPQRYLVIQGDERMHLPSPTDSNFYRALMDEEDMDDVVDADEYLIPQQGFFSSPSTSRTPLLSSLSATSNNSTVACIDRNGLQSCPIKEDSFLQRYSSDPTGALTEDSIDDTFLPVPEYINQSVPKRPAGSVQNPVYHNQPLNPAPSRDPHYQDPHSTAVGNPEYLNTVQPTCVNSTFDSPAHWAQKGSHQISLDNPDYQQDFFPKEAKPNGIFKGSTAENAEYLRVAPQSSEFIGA
MEASUREMENT PROTOCOL: Inhibition of GST-tagged human recombinant EGFR catalytic domain (668 to 1210 amino acids) T790M/L858R mutant expressed in Sf9 cells pre-incubated for 30 mins before ATP and substrate addition by homogeneous time-resolved FRET assay
MEASURED PROPERTY: log10 of IC50 (log10 of the value in nM)
A value of 2 here means IC50 of 100 in nM, since values are log10.

GIVEN SMILES	TGT	log10 of IC50
COc1cc(N2CCN(C)CC2)ccc1Nc1ncc(Cl)c(Oc2cccc(NC(=O)/C(C#N)=C/c3ccncc3)c2)n1	Epidermal growth factor receptor (Homo sapiens, UniProt P00533, L858R/T790M)	1.57

Attention now turns to another entry.
Task: Tell me log10 of IC50 reported for COc1cc(N2CCN(C)CC2)ccc1Nc1ncc(Cl)c(Oc2cccc(NC(=O)/C(C#N)=C/c3ccc(F)cc3)c2)n1
Result: 2.08

Data provenance is ChEMBL document CHEMBL3425413.
